Biological target: Glutamate NMDA receptor; GRIN1/GRIN2A (Homo sapiens, UniProt Q05586+Q12879)
Sequence (Q12879 whole entry, other chains not shown): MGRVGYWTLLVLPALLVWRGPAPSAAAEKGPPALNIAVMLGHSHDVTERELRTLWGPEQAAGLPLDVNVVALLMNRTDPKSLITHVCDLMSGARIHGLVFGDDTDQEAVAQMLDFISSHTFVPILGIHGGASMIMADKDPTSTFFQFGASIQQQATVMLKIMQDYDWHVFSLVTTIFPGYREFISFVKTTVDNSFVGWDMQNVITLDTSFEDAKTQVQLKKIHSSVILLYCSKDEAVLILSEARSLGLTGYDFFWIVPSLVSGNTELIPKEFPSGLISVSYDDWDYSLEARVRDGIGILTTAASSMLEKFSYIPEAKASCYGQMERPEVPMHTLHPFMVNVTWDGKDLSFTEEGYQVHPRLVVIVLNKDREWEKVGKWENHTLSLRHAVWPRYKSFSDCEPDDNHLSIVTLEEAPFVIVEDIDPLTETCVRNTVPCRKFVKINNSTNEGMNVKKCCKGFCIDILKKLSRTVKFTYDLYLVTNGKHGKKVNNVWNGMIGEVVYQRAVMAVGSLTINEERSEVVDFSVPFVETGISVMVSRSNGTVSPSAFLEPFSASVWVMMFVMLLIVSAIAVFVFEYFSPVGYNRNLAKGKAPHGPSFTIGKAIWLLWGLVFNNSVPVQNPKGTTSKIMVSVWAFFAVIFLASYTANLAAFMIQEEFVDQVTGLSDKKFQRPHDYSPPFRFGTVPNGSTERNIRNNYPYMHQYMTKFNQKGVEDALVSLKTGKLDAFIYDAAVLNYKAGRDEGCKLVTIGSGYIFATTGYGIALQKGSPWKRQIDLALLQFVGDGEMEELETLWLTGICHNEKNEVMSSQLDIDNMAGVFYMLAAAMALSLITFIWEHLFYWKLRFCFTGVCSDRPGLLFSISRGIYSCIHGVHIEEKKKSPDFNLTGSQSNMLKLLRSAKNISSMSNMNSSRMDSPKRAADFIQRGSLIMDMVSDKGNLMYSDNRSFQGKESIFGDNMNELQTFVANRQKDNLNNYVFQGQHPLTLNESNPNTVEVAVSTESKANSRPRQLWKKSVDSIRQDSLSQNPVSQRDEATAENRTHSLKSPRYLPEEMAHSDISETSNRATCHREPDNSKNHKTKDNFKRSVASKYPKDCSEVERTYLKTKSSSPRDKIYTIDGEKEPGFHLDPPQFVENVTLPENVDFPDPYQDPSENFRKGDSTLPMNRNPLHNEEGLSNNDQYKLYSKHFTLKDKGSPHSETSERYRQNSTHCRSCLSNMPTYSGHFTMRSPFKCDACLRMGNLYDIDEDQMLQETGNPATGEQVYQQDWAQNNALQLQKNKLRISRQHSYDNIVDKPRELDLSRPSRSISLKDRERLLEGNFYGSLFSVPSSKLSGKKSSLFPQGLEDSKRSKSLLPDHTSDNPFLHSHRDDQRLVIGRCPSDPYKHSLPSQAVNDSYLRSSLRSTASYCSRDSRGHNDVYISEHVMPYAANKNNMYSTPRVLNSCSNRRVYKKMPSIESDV
Test: Positive allosteric modulation of GluN1/GluN2A NMDAR (unknown origin) expressed in Dox-inducible cells measured every 5 mins by BD calcium indicator dye based-fluorescence analysis in presence of glutamate/glycine
Exercise: state measured pEC50 for each of the compounds provided.
Give bare numbers, as −log10 of the molar value.

{"Compound": "CCN(Cc1cc(=O)n2c(C(C)C)c(C)sc2n1)c1ccc(F)cc1", "pEC50": 6.16}

Field: pEC50. Fill in for each record below.
1. CCN(Cc1cc(=O)n2c(CO)c(C)sc2n1)c1ccc(F)cc1
2. CCNC(=O)c1c(C)sc2nc(Cc3cc(C#N)ccc3C3CC3)cc(=O)n12
3. Cc1sc2nc(Cc3cccc(C#N)c3F)cc(=O)n2c1C1CC1CO (racemic)
4. CCNC(=O)c1c(C)sc2nc(Cc3cccc(C(F)(F)F)c3)cc(=O)n12
5. CCN(Cc1cc(=O)n2c(C(=O)NC)c(C)sc2n1)c1ccc(F)cc1
6. Cc1sc2nc(Cc3cccc(C(F)(F)F)c3F)cc(=O)n2c1C1CC1CO (racemic)

[6.19, 4.76, 6.05, 5.72, 6.88, 6.34]

----------
Molecular target: Glutamate receptor 2 (Homo sapiens, UniProt P42262)
Sequence (P42262 whole entry): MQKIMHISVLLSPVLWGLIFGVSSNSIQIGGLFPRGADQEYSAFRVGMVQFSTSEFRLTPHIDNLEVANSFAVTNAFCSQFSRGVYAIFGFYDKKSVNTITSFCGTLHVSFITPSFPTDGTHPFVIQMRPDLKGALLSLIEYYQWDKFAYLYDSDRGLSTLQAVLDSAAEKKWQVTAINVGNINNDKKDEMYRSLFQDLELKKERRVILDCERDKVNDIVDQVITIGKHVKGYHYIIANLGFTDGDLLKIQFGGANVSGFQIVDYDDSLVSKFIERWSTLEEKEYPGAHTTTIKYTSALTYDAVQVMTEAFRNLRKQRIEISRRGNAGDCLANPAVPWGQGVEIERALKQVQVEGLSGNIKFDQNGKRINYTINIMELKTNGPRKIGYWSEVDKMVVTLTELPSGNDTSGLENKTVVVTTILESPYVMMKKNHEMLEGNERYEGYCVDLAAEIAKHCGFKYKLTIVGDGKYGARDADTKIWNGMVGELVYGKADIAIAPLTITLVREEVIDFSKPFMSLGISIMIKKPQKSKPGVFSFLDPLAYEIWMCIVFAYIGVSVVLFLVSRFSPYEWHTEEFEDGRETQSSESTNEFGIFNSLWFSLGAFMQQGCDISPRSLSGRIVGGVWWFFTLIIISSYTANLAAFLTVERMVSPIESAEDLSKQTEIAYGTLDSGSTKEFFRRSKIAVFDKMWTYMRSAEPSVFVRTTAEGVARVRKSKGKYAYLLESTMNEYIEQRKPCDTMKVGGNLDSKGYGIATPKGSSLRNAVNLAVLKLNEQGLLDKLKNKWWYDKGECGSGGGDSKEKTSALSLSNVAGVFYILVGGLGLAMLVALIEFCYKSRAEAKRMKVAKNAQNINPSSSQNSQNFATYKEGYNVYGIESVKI
Test: Positive allosteric modulation of human GluA2 AMPAR flop isomer expressed in Dox-inducible cells measured every 5 mins by BD calcium indicator dye based-fluorescence analysis in presence of glutamate
Format: cell-based
Exercise: state measured EC50 for each of the molecules provided.
Remember to put the unit after the number in your answer.

// known answers, use as guide
{"Molecule": "CCN(Cc1cc(=O)n2c(-c3cncnc3)c(C)sc2n1)c1ccc(F)cc1", "EC50": "972 nM"}
{"Molecule": "CCN(Cc1cc(=O)n2c(N3CCOCC3)c(C)sc2n1)c1ccc(F)cc1", "EC50": "60200 nM"}
{"Molecule": "CCN(Cc1cc(=O)n2nc(C)sc2n1)c1ccc(F)cc1", "EC50": "830 nM"}

Field: EC50. Fill in for each record below.
1. CCN(Cc1cc(=O)n2c([C@@H]3C[C@H]3CO)c(C)sc2n1)c1ccc(F)cc1
2. Cc1sc2nc(Cc3cccc(C#N)c3F)cc(=O)n2c1C1CC1CO (racemic)
3. N#C[C@@H]1C[C@H]1c1c(C(F)(F)F)sc2nc(Cn3nc(C(F)(F)F)cc3Cl)cc(=O)n12
4. CCN(Cc1cc(=O)n2nc(C)sc2n1)c1ccccc1
5. CCNC(=O)c1c(C)sc2nc(Cn3nc(C(F)(F)F)cc3Cl)cc(=O)n12

204 nM
1100 nM
5500 nM
2000 nM
73200 nM

----------
System: human MDR1 (P-gp)
Experiment: Efflux ratio of permeability from basolateral to apical over apical to basolateral side in MDCK cells expressing human MDR1
Format: ADME, cell-based, Canis lupus familiaris
Settings: dog
Experimental readout: efflux ratio
One number for each entry.

// known answers, use as guide
{"Compound": "CCN(Cc1cc(=O)n2c(CO)c(C)sc2n1)c1ccc(F)cc1", "Experimental readout": "efflux ratio", "Measured value": 1.1}
{"Compound": "CCCN(Cc1cc(=O)n2c(C(=O)NCC)c(C)sc2n1)c1ccc(F)cc1", "Experimental readout": "efflux ratio", "Measured value": 12.6}
{"Compound": "CCN(Cc1cc(=O)n2c([C@@H]3C[C@H]3CO)c(C)sc2n1)c1ccc(F)cc1", "Experimental readout": "efflux ratio", "Measured value": 1.2}

Field: efflux ratio. Fill in for each record below.
1. CCN(Cc1cc(=O)n2c(-c3cncnc3)c(C)sc2n1)c1ccc(F)cc1
2. Cc1sc2nc(Cn3nc(C(F)(F)F)cc3Cl)cc(=O)n2c1[C@@H]1C[C@H]1C#N
3. CCN(Cc1cc(=O)n2c(N3CCOCC3)c(C)sc2n1)c1ccc(F)cc1
4. CCN(Cc1cc(=O)n2c(C(C)C)c(C)sc2n1)c1ccc(F)cc1
5. CCN(Cc1cc(=O)n2c(C(C)(C)O)c(C)sc2n1)c1ccc(F)cc1
6. Cc1sc2nc(COc3ccc(F)cc3)cc(=O)n2c1[C@@H]1C[C@H]1CO

1: 1.2; 2: 5.3; 3: 0.9; 4: 1.3; 5: 1; 6: 0.8

Field: efflux ratio. Fill in for each record below.
1. CCNC(=O)c1c(C)sc2nc(CN(CC)c3ccc(F)cn3)cc(=O)n12
2. O=c1cc(Cn2nc(C(F)(F)F)cc2Cl)nc2sc(C(F)(F)F)c([C@@H]3C[C@H]3CO)n12
3. Cc1sc2nc(Cc3cccc(C(F)(F)F)c3F)cc(=O)n2c1C1CC1CO (racemic)

1. 22
2. 1
3. 0.51

Source listed as ChEMBL document CHEMBL3797125.
